Tested on: surinam grass (Brachiaria decumbens)
Experiment Description: Test F pre-/postemergence: surinam grass
Type: in vivo
Setup Conditions: Preemergence; 250 g ai/ha; scale 0 to 100
Recorded Plant response rating, Surinam Grass, one value per entry.
Recorded Endpoint: Plant response rating, Surinam Grass

INSERT INTO results (given_smiles, experimental_system, meas_value) VALUES
  ('CCc1nn(-c2ccc(C(F)(F)F)cc2)nc1Oc1ccnc(C(F)(F)F)c1', 'surinam grass (Brachiaria decumbens)', 100),
  ('Cc1nn(-c2ccc(F)cc2F)nc1Oc1ccnc(C(F)(F)F)c1', 'surinam grass (Brachiaria decumbens)', 35),
  ('CCCc1nn(-c2ccc(F)c(F)c2)nc1Oc1ccnc(C(F)(F)F)c1', 'surinam grass (Brachiaria decumbens)', 98),
  ('CCc1nn(-c2ccc(C(F)(F)F)cc2)nc1Cc1ccnc(C(F)(F)F)c1', 'surinam grass (Brachiaria decumbens)', 90);

* * *

Test system: barnyardgrass (Echinochloa crus-galli)
Experiment Description: Test A pre-/postemergence: barnyardgrass
Assay type: in vivo
Setup Conditions: Preemergence, 125 g ai/ha; 0 to 100 scale where 0 is no effect and 100 is complete control
Recorded Plant response rating, Barnyardgrass, one value per entry.
Recorded Endpoint: Plant response rating, Barnyardgrass

INSERT INTO results (given_smiles, recorded_endpoint, meas_value) VALUES
  ('CCOc1nn(-c2ccc(F)cc2F)nc1Cc1ccnc(C(F)(F)F)c1', 'Plant response rating, Barnyardgrass', 100),
  ('COc1nn(-c2ccc(C(F)(F)F)cc2)nc1Cc1ccnc(C(F)F)c1', 'Plant response rating, Barnyardgrass', 90),
  ('Cc1cc(Oc2nn(-c3ccc(F)cc3)nc2C)ccn1', 'Plant response rating, Barnyardgrass', 0),
  ('Cc1nn(-c2ccc(F)cc2F)nc1Oc1ccnc(C(F)(F)F)c1', 'Plant response rating, Barnyardgrass', 90),
  ('CCCc1nn(-c2ccc(F)cc2F)nc1Oc1ccnc(C(F)(F)F)c1', 'Plant response rating, Barnyardgrass', 90),
  ('Cc1nn(-c2ccc(F)cc2)nc1Oc1cccc(C(F)(F)F)n1', 'Plant response rating, Barnyardgrass', 0),
  ('Cc1nn(-c2ccc(C(F)(F)F)cc2)nc1Oc1cccc(OC(F)(F)F)c1', 'Plant response rating, Barnyardgrass', 0),
  ('CCCCOc1nn(-c2ccc(C(F)(F)F)cc2)nc1Cc1ccnc(C(F)(F)F)c1', 'Plant response rating, Barnyardgrass', 0),
  ('FC(F)(F)c1cccc(-n2nc(Oc3ccnc(C(F)(F)F)c3)c(C3CC3)n2)c1', 'Plant response rating, Barnyardgrass', 0),
  ('CCCOc1nn(-c2ccc(C(F)(F)F)cc2)nc1Cc1ccnc(C(F)(F)F)c1', 'Plant response rating, Barnyardgrass', 90),
  ('CCCCc1nn(-c2ccc(C(F)(F)F)cc2)nc1Oc1ccnc(C(F)(F)F)c1', 'Plant response rating, Barnyardgrass', 0);

* * *

System: corn (Zea mays)
Experiment Description: Test C pre-/postemergence: corn
Format: in vivo
Setup Conditions: Postemergence, 125 g ai/ha; scale 0 to 100, 0 no effect, 100 complete control
Recorded Endpoint: Plant response rating, Corn

INSERT INTO assay_data (compound, recorded_endpoint, meas_value) VALUES
  ('FC(F)(F)COc1nn(-c2ccc(C(F)(F)F)cc2)nc1Cc1ccnc(C(F)(F)F)c1 [Compound 14]', 'Plant response rating, Corn', 15),
  ('CCCc1nn(-c2ccc(F)c(F)c2)nc1Oc1ccnc(C(F)(F)F)c1 [Compound 172]', 'Plant response rating, Corn', 25),
  ('CCCc1nn(-c2ccc(F)cc2F)nc1Oc1ccnc(C(F)(F)F)c1 [Compound 179]', 'Plant response rating, Corn', 15);
